# credit: PubChem BioAssay (NCI)

Catalogue of growth values
- Test system: NCI-H23 lung
- Assay: NCI-60 one-dose screen, 48 h (100 = growth as untreated, 0 = no growth, -100 = all killed)
- Study conditions: 10 µM unless noted
Compounds without any hit were thinned out: in the full panel of roughly 83,000, 20% have a hit.
// return numeric value only (unit: %, not printed)

Answered examples (5):
{"columns": ["Mol", "Unit abbrev", "Measured result"],
 "data": [
  ["COc1cc(-c2nnc(-c3nc(-c4cc(OC)c(OC)c(OC)c4)n4ccccc34)o2)ccc1N", "%", 67.7],
  ["COc1cccc(-c2nc(-c3ccc(N)cc3)co2)c1", "%", 106],
  ["CCOC(=O)C(C(=O)OCC)C1CCCCC1", "%", 106],
  ["O=C(N/N=C/c1cccc([N+](=O)[O-])c1)c1ccc(Br)o1", "%", 102],
  ["O=C(O)CNC(=O)C1(N2C(=O)c3ccccc3C2=O)CCCC1", "%", 101]
]}

# evaluate next
State the recorded growth for this entry: CCCCCCCCCCCCCCCCNC(=O)Nc1ccc2ccccc2c1
103

###

- Tested on: RPMI-8226 leukemia
- Assay: NCI-60 one-dose screen, 48 h
- Study conditions: 10 µM unless noted
About 83,000 compounds went through this panel and 20% of them were active in at least one assay; those are over-represented in the sample as a whole. Calls of active or inactive are those of the source. Rule for the calls: active = growth percent below 10; inactive = the rest.
Your answer must be one of the following: TRUE for active, FALSE for inactive

For orientation, consider the following solved cases.
{"columns": ["Molecule", "Test system", "Group"],
 "data": [
  ["O=C1c2cccc3c([N+](=O)[O-])ccc(c23)C(=O)N1CCCCl", "RPMI-8226 leukemia", "TRUE"],
  ["CCN(CC)c1ccc(C(=C2C=CC(=[N+](CC)Cc3cccc(S(=O)(=O)O)c3)C=C2)c2ccc(N(CC)Cc3cccc(S(=O)(=O)O)c3)cc2)cc1", "RPMI-8226 leukemia", "TRUE"],
  ["OCc1n(Cc2ccc3ccccc3c2)cc[n+]1Cc1ccc2ccccc2c1", "RPMI-8226 leukemia", "FALSE"]
]}

Fill in: this test's call for CCOc1cc(/C=C/C(=O)CC(=O)/C=C/c2ccc(OC(=O)CNCCN(CC)CC)c(OCC)c2)ccc1OC(=O)CNCCN(CC)CC is ___
TRUE

Fill in: this test's call for Cn1ccnc1C(=O)/C=C/c1ccc(C(=O)Nc2nc3ccccc3[nH]2)cc1 is ___
FALSE

Fill in: this test's call for O=C1/C=C/[C@@H](O)[C@@H]2C[C@@H](O)C[C@H]2/C=C/CCC[C@H](CO)O1 is ___
FALSE

Fill in: this test's call for CC(=O)OC1Oc2cc(C)c(C)cc2-c2oc(=O)c(-c3ccccc3)cc21 (stereo not given) is ___
TRUE

Fill in: this test's call for CCOC(=O)c1cc2oc(/C=C/c3cc(=O)c4cc(Cl)ccc4o3)cc2[nH]1 is ___
FALSE

Fill in: this test's call for O=C(CSc1nnc(-c2cc(-c3ccccc3)nc3ccccc23)o1)c1ccc(Br)cc1 is ___
FALSE

Fill in: this test's call for Oc1ccccc1/C=N/N1CCCCCC1 is ___
FALSE

###

- Tested on: SK-MEL-5 melanoma
- Assay: NCI-60 one-dose screen, 48 h
- Study conditions: 10 µM unless noted
The panel holds about 83,000 compounds, 20% with a hit somewhere; the sample as a whole holds those more often. Active and inactive are the calls of the source. How the source made its calls: active means growth percent below 10; inactive means the rest.
Your answer must be one of the following: active, inactive

For orientation, consider the following solved cases.
{"columns": ["Molecule", "Group"],
 "data": [
  ["COc1ccc2nc(NC(=O)CN3CCn4c(nnc4C(F)(F)F)C3)sc2c1", "inactive"],
  ["COC(=O)c1cc2c(/C=C3/NC(=S)NC3=O)coc2n1C", "inactive"]
]}

Now examine the next entry.
Fill in: this test's call for O=C1/C(=C/c2cccc(Cl)c2)CCc2ccccc21 is ___
inactive

###

Catalogue of growth values
- Tested on: TK-10 renal
- Assay: NCI-60 one-dose screen, 48 h (100 = growth as untreated, 0 = no growth, -100 = all killed)
- Study conditions: 10 µM unless noted
This is part of a sample that, as a whole, favours compounds with a hit. Of some 83,000 tested, about 20% had one in any assay. Active and inactive are the calls of the source. How the source made its calls: active means growth percent below 10; inactive means the rest.

Answered examples (4):
{"columns": ["Mol", "Test system", "growth"],
 "data": [
  ["CC(C)OP(=O)(OC(C)C)c1ncc(-c2ccc(C(F)(F)F)cc2)c(NC2CCCCCC2)n1", "TK-10 renal", "1.08% [33.3 µM] (active)"],
  ["CCN(CC)CCNCC(=O)Oc1ccc(/C=C/C(=O)CC(=O)/C=C/c2ccc(OC(=O)CNCCN(CC)CC)c(OC)c2)cc1OC", "TK-10 renal", "50.3% (inactive)"],
  ["Cc1ccc(-c2c3c(N)nc(-c4ccncc4)nc3nc3c2c(C)nn3-c2ccccc2)cc1", "TK-10 renal", "12.3% (inactive)"],
  ["c1ccc(-c2oc(-c3ccccc3)c3ccccc23)cc1", "TK-10 renal", "114% (inactive)"]
]}

State the recorded growth for this entry: Fc1ccc(-c2nn3c(-c4cc(C(F)(F)F)cc(C(F)(F)F)c4)nnc3s2)cc1
-40% (active)

State the recorded growth for this entry: COc1ccc2c(c1)C(=Nc1cc(OC)c(OC)c(OC)c1)C(=O)N2
136% (inactive)

State the recorded growth for this entry: O=C(CSc1ncc(-c2ccccc2)n1-c1ccccc1)Nc1ccc(-c2nc3ccccc3s2)cc1
44.2% (inactive)

State the recorded growth for this entry: COC(=O)[C@H](Cc1cn(C)cn1)NC(=O)[C@@H](NC(=O)Nc1cc(C(F)(F)F)cc(C(F)(F)F)c1)C(C)C
-98.7% [100 µM] (active)

State the recorded growth for this entry: O=C(NCCCl)NCCN1c2nc3ccccc3cc2Sc2cc3ccccc3nc21
99.2% (inactive)

###

- Test system: RPMI-8226 leukemia
- Assay: NCI-60 one-dose screen, 48 h
- Study conditions: 10 µM unless noted
This is part of a sample that, as a whole, favours compounds with a hit. Of some 83,000 tested, about 20% had one in any assay. Active and inactive are the calls of the source. How the source made its calls: active means growth percent below 10; inactive means the rest.
Your answer must be one of the following: True = active, False = inactive

For orientation, consider the following solved cases.
{"columns": ["Molecule", "Group"],
 "data": [
  ["O=CNc1ccc2c(c1)Cc1cc([N+](=O)[O-])ccc1-2", "False"],
  ["CCSc1nc(-c2ccco2)n2nc(-c3ccco3)cc2n1", "False"],
  ["COc1ccc2c(c1)CC[C@@H]1[C@@H]2CC[C@]2(C)[C@@H](O)C(=O)C[C@@H]12", "False"]
]}

Fill in: this test's call for CC(C)CC1NC(=O)C(CCCN)NC(=O)C(C(C)C)NC(=O)C2CCCN2C(=O)C(Cc2ccccc2)NC(=O)C(CC(C)C)NC(=O)C(CCCN)NC(=O)C(C(C)C)NC(=O)C2CCCN2C(=O)C(Cc2ccccc2)NC1=O (configuration not stated) is ___
True

Fill in: this test's call for O=c1c2ccccc2c2nccn2c2cc(Cl)ccc12 is ___
False

Fill in: this test's call for COc1ccc(OC)c2c1CCC1(C2)NC(=O)NC1=O (configuration not stated) is ___
False

Fill in: this test's call for c1ccc2nc(Cn3c[n+](Cc4ccc5ccccc5n4)c4ccccc43)ccc2c1 is ___
True

Fill in: this test's call for O=C(CNc1ccc2c(c1)C(=O)c1ccccc1C2=O)Nc1ccc2c(c1)C(=O)c1ccccc1C2=O is ___
True

###

- System: SN12C renal
- Assay: NCI-60 one-dose screen, 48 h (100 = growth as untreated, 0 = no growth, -100 = all killed)
- Study conditions: 10 µM unless noted
Compounds without any hit were thinned out: in the full panel of roughly 83,000, 20% have a hit.
Observable: growth (%)
// return numeric value only (unit: %, not printed)

Answered examples (4):
{"columns": ["Mol", "Test system", "growth / %"],
 "data": [
  ["COc1ccc(CNC(=O)c2c(C)n([O-])c3ccccc3[n+]2=O)cc1", "SN12C renal", 101],
  ["COc1ccc(C(=O)COc2cccc(/C=C3\\COc4ccc5ccccc5c4C3=O)c2)cc1", "SN12C renal", 68.6],
  ["N#Cc1c(-c2ccc(F)cc2)n2c(nc1=O)SC(=O)C2=O", "SN12C renal", 91.1],
  ["NS(=O)(=O)c1ccc(-n2ncc3c(SCc4ccccc4)ncnc32)cc1", "SN12C renal", 98.8]
]}

# evaluate next
State the recorded growth for this entry: COc1ccc(C(=O)COc2cccc(/C=C3\CSc4ccc(Cl)cc4C3=O)c2)cc1
90.2

###

- Test system: NCI-H322M lung
- Assay: NCI-60 one-dose screen, 48 h
- Study conditions: 10 µM unless noted
The panel holds about 83,000 compounds, 20% with a hit somewhere; the sample as a whole holds those more often. Active and inactive are the calls of the source. The calls were made as follows: active = growth percent below 10; inactive = the rest.
Your answer must be one of the following: YES = active, NO = inactive

Fill in: this test's call for C[C@H](C(=O)N[C@@H](Cc1ccc(-c2ccccc2)cc1)C(=O)NC1CC(C)(C)NC(C)(C)C1)c1ccc(-c2ccccc2)c(F)c1 is ___
YES

Fill in: this test's call for Cc1cc(Br)c(C)cc1Br is ___
NO

Fill in: this test's call for O[N+]1=CC=CCC1=S.On1ccccc1=S.[Zn] is ___
YES
